tested on: CCRF-CEM leukemia; test: NCI tumour cell line growth inhibition, 48 h
PARAMETER: GI50

Consider the molecule CN(C)CC/C=C1\c2ccccc2Sc2ccc(Cl)cc21 . State its measured GI50.
3.36 µM

Consider the molecule O=S(=O)(NCCNc1cc(-c2cn(-c3ccccc3)nc2-c2cccc(O)c2)ccn1)c1ccc(C(F)(F)F)cc1 . State its measured GI50.
3.27 µM

Consider the molecule COc1ccc(C(=O)/C=C/c2cc3ccccc3[nH]c2=O)cc1 . State its measured GI50.
22.3 µM

Consider the molecule COc1ccc(OC)c(/C=C/c2nnc(Nc3ccc(Cl)cc3)o2)c1 . State its measured GI50.
> 100 µM

Consider the molecule COC(=O)c1cccc(NC(=O)Nc2ccc3oc(=O)c4ccccc4c3c2)c1 . State its measured GI50.
12.1 µM
